Collected IC50 values appear next to each entry.
study-target: MMP-1 (Homo sapiens, UniProt P03956)
Construct: calbiochem cat
Sequence (P03956 100-469): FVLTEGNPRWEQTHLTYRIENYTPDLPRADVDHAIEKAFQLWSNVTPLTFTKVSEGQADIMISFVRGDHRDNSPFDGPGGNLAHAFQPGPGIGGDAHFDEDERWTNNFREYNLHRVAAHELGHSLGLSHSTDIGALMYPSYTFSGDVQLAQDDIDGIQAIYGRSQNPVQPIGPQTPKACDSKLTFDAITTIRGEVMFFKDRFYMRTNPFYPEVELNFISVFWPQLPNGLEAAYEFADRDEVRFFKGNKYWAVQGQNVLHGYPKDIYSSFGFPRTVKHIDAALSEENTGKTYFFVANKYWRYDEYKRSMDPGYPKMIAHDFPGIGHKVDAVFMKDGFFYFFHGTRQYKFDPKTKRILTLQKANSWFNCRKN
assay-notes: Test 6 MMP-1 inhibition activity test
measurement-parameters: MMP-1 from human rheumatic synovium fibroblast, activated with AMPA

compound	IC50
CCOCCN(C1(C(=O)NO)CCCC1)S(=O)(=O)c1ccc(Oc2ccc(S(C)(=O)=O)cc2)cc1 [Example 45]	4.96 µM
CS(=O)(=O)c1ccc(Oc2ccc(S(=O)(=O)N(Cc3ccccc3)C3(C(=O)NO)CCOCC3)cc2)cc1 [Example 12]	> 10 µM
CC(C)CN(C1(C(=O)NO)CCC1)S(=O)(=O)c1ccc(Oc2ccc(S(C)(=O)=O)cc2)cc1 [Example 18]	3.3 µM
CCOC(=O)CN(C1(C(=O)NO)CCCC1)S(=O)(=O)c1ccc(Oc2ccc(S(C)(=O)=O)cc2)cc1 [Example 23]	> 10 µM

Consider CCOC(=O)CCN(C1(C(=O)NO)CCCC1)S(=O)(=O)c1ccc(Oc2ccc(S(C)(=O)=O)cc2)cc1 [Example 26] . Its measured IC50 is 3.9 µM

====

Collected IC50 values appear next to each entry.
study-target: MMP-2 (Homo sapiens)
Sequence (P08253 110-660): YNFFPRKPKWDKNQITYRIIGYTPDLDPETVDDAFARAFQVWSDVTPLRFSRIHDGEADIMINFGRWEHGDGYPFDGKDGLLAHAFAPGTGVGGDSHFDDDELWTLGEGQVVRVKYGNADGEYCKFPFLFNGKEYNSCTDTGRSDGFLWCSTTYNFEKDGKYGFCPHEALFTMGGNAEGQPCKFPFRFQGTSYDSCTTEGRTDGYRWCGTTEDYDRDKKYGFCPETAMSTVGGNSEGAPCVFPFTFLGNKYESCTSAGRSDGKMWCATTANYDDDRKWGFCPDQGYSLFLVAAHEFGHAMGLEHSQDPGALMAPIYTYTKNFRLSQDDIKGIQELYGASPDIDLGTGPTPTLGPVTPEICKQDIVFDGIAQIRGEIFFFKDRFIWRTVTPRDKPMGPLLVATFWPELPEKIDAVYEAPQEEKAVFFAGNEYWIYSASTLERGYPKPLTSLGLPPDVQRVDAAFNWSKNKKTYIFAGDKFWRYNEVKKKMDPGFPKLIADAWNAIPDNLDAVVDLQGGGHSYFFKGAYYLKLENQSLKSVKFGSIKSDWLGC
assay-notes: Test 3 MMP-2 inhibition activity test (gelatinase activity assay kit)
measurement-parameters: activated human MMP-2, biotin labeled gelatin
Method: TTC buffer solution was attached to a MMP-2 enzyme assay kit, and the solution was made of 50 mM tris, 1 mM calcium chloride solution and 0.05% Triton X-100 solution, and was adjusted to pH 7.5. Test 3 MMP-2 Inhibition Activity Test MMP-2 enzyme assay kit (Gelatinase Activity Assay, Roche.Diagonistics) was used. […]
Give your result in nM as a bare value.

COCCCN(CC(=O)NO)S(=O)(=O)c1ccc(Oc2ccc(S(C)(=O)=O)cc2)cc1 1500

Please examine the following record next.
Consider CCOC(=O)CCN(C1(C(=O)NO)CCCC1)S(=O)(=O)c1ccc(Oc2ccc(S(C)(=O)=O)cc2)cc1 . Its measured IC50 is 300

====

Collected pIC50 values appear next to each entry.
study-target: MMP-13 (Homo sapiens, UniProt P45452)
Construct: a fragment of 767 bp encoding original 84 amino acids of complete MMP-13 and encoding 164 amino acids
assay-notes: Test 2 Test on MMP-13 inhibition activity (fluorogenic peptide substrate)
measurement-parameters: activated MMP-13, 37° C.
Kindly note that pIC50 refers to -log10 of the concentration in mol/L and answer with the value alone.

Below, each entry is followed by its recorded pIC50 result.
molecule	measured-quantity	reported-value
CC(C)CN(C1(C(=O)NO)CCC1)S(=O)(=O)c1ccc(Oc2ccc(S(C)(=O)=O)cc2)cc1 [Example 18]	pIC50	8.51
CCOC(=O)CN(CC(=O)NO)S(=O)(=O)c1ccc(Oc2ccc(S(C)(=O)=O)cc2)cc1 [Example 22]	pIC50	8.72
CS(=O)(=O)c1ccc(Oc2ccc(S(=O)(=O)NCC(=O)NO)cc2)cc1 [Example 13]	pIC50	7.97
COc1ccc(Oc2ccc(CC3Sc4ccc(C(=O)O)cc4N(CC(=O)NO)C3=O)cc2)cc1 (centres unmarked) [compound 1, reference compound]	pIC50	8.13
CC(C)CN(C1(C(=O)NO)CCCC1)S(=O)(=O)c1ccc(Oc2ccc(S(C)(=O)=O)cc2)cc1 [Example 2]	pIC50	8.24
CS(=O)(=O)c1ccc(Oc2ccc(S(=O)(=O)NC3(C(=O)NO)CCC3)cc2)cc1 [Example 48]	pIC50	8.16

Please examine the following record next.
Consider CC(C)OCCN(CC(=O)NO)S(=O)(=O)c1ccc(Oc2ccc(S(C)(=O)=O)cc2)cc1 [Example 3] . Its measured pIC50 is 9.30

Values from patent US7504537B2
